target: Tyrosine-protein kinase Fgr (Homo sapiens); conditions: at 1 µM;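 note: value reported as mean kinase inhibition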
Quick reference for inhibition among some compounds
Provide only the numeric value, understood in %.

1) CCn1c(-c2nonc2N)nc2cncc(C(=O)N3CCNCC3)c21 ... 2.57

Requested read-out: inhibition. Entry: CC(=O)Nc1cccc(C#Cc2cncnc2Nc2ccc(OCc3cccc(F)c3)c(Cl)c2)n1
3.79

Try COc1ccc(-c2nn3ncccc3c2-c2ccnc(Nc3ccc(Cl)c(C(F)(F)F)c3)n2)cc1 next.
16.9

Try COc1cc2ncn(-c3cc(OCc4ccccc4Cl)c(C(N)=O)s3)c2cc1OC next.
19.1

Try Fc1cccc(COc2ccc(Nc3ncnc4cc(-c5ccc[nH]5)sc34)cc2Cl)c1 next.
11

Try N#Cc1c(NC(=O)c2cccc3ccccc23)sc2c1CCCC2 next.
5.24

Try O=C1NC(=O)C(N2CCc3ccccc32)=C1c1ccc(Cl)cc1 next.
8.07

Try CC(C)=Cc1cccc2c1/C(=N/Nc1ccc(S(N)(=O)=O)cc1)C(=O)N2 next.
25.3

Try CCc1cccc(NC(=O)Nc2ccc(Oc3ccc4nc(NC(=O)OC)[nH]c4c3)cc2)c1 next.
5.18

Try Nc1nc(-c2ccccn2)c(-c2ccc3ncccc3n2)s1 next.
2.08

Try CCn1c(-c2nonc2N)nc2c(N3CCCC3)nccc21 next.
-0.02

Try CCn1c(-c2nonc2N)nc2c(C#CC(C)(C)O)nc(CN3CCCC3)cc21 next.
3.81

Try COc1cc(C)c(NC(=O)CN(C)C)cc1Nc1nc(Nc2cccc(F)c2C(N)=O)c2cc[nH]c2n1 next.
2.7

Try Cc1nnc(-c2ccc(C)c(-c3ccc(C(=O)Nc4cccc(C#N)c4)cc3)c2)o1 next.
5.11

Try COc1cc2ncn(-c3cc(OCc4ccccc4C(F)(F)F)c(C(N)=O)s3)c2cc1OC next.
14.6

Try CCn1c(-c2nonc2N)nc2cncc(C(=O)N3CC[C@H](N)C3)c21 next.
1.29

Try Cc1ccc(C(=O)NC2CCCCC2)cc1-c1ccc(C(=O)NCC2CC2)cc1 next.
5.25
